Origin of measurements: patent US11696928B2

# target_or_test_system: AhR (Homo sapiens)
# Construct: One of the resultant clones was named HEK-XRE 11.1, and used in the reporter gene assays; endogenous in cells; host or cells: HEK-XRE 11.1 (HEK cells stably carrying the AhR-responsive luciferase reporter X4-4.27 and phRL-CMV)
# Sequence (P35869 11-848): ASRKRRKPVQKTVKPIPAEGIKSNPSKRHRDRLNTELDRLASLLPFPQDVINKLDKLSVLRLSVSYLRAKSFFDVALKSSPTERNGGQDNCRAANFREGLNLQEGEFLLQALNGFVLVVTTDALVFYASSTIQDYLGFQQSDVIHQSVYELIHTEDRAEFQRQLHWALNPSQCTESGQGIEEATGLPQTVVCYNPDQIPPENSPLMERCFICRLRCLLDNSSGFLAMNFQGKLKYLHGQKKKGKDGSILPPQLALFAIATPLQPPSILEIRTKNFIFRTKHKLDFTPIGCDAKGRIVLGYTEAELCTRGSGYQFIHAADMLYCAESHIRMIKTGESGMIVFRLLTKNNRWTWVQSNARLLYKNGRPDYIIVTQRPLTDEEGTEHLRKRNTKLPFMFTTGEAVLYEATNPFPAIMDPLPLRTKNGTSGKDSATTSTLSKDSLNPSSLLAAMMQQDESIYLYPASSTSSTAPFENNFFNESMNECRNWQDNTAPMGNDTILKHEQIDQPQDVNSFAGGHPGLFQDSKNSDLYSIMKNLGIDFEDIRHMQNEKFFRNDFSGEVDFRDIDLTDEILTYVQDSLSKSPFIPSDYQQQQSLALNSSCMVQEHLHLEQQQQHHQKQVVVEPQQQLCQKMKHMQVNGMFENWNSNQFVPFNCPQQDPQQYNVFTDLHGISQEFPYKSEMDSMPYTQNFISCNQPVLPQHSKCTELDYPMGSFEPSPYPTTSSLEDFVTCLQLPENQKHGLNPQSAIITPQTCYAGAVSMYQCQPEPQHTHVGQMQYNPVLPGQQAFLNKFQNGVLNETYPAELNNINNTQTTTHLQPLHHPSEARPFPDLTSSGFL
# protocol: Inhibition of AhR-mediated gene transcription (HEK-XRE 11.1 luciferase reporter, MeBIO induction)
# Type: cell-based
# condition: HEK-XRE 11.1 cells, MeBIO 0.1 nM, luminescence after 24 hours; Table 1
pIC50: −log10 of the molar value.
observable: pIC50

Cc1ccc(NC(=O)c2sc3ncc(C(F)(F)F)cc3c2N)cn1
6.30 to 7.30
Nc1c(C(=O)Nc2cccnc2)sc2nc3c(cc12)CCC3
6.30 to 7.30
COc1ccc(NC(=O)c2sc3ncc(C(F)(F)F)cc3c2N)cn1
> 7.30
Nc1c(C(=O)Nc2ccc(CO)cc2)sc2ncc(C(F)(F)F)cc12
< 6.30
Cc1cc(NC(=O)c2sc3ncc(C(F)(F)F)cc3c2N)ccc1Cl
6.30 to 7.30
